Give Kd for every item shown.
- target system: T1, human complement factor D purified from serum (human, UniProt P00746 26-253)
- T1 construct: serum-purified (CompTech); also called hCFD-Comptech; CFD
- T1 sequence (P00746 26-253): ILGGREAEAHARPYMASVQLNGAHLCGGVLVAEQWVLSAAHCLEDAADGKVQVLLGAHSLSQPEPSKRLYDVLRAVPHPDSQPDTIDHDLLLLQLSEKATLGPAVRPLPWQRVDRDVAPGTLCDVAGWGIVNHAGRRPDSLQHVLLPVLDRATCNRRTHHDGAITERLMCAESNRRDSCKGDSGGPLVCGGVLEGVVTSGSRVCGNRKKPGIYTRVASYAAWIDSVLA
- experiment description: SPR MX96
Numbers only, in nM.

KCD219 (antibody, V domains shown) VH: QVQLQQSGPELVKPGASVKISCKASGYTFTDYYINWVKQRPGQGLEWIGWIFPGSGSTYYNEKFKGKATLTVDKSSSTAYMLLSSLPSEDSAVYFCARYGYYGSSFYAMDYWGQGTSVTVSS VL: DIQMTQSPASLSVSVGETVTITCRASENIYSNLAWYQQKQGKSPQLLVYAATNLADGVPSRFSGSGSGTQYSLKINSLQSEDFGSYYCQHFWGSPPTFGGGTKLEIK	4.3

Moving on to the next binder.
// Kd value for KCD023 (antibody, V domains shown, chimeric) VH: EVLLQQSGPELVKPGASVKIPCKASGYTFTDYNIDWVKQSHGKSLEWIGDINPNNGGINYNQKFKGKATLTVDKSSSTAYMELRSLTSEDTAVYYCGTGDYAYWGQGTLVTVSA VL: QIVLTQSPAFMSASPGEKVTLTCSASSSVSSSYLYWYQQKPGSSPKLWIYSTSNLASGVPGRFSGSGSGTSYSLTISSMEAEDAASYFCHQWTSYPPTFGAGTKLELK : 5.3
